test: binders of r(CAG) RNA repeats, primary screen, biochemical, fluorescence (AID 651821); settings: r(CAG) RNA repeat, TO-PRO-1 dye displacement fluorescence; at 3 µM; hits give high values;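 also: 0% = DMSO alone and 100% = 100 µM mitoxantrone as full dye displacement; higher means more dye released from RNA so lower well fluorescence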
About 4,700 (1.3%) of roughly 370,000 compounds were called active. The sample holds actives, similar compounds and a random draw of the others, so the mix is not that of the screen.
Label rule, in plain words: inhibition of 30% and up is rule met, under 30% is rule not met.

A selection of reference data follows.
# ITEM_SMILES, ANSWER_LABEL
measured = [
    ("O=C(Nc1ccc(S(=O)(=O)Nc2nccs2)cc1)c1cc(-c2ccncc2)nc2ccccc12", "rule met"),
    ("Cc1cc(C(=O)OCC(=O)Nc2nccs2)c2ccccc2n1", "rule not met"),
    ("O=C(Nc1ccc(S(=O)(=O)Nc2nccs2)cc1)c1cc(=O)[nH]c2ccccc12", "rule not met"),
]

Could you please find out whether C[C@@H]1ON(C)[C@H]2C[C@H]3c4cc(N5CCOCC5)ccc4CCN3C[C@@H]12 has inhibition that meets 30% or exceeds it?
rule not met

Record O=C(CSc1nc2sc3c(c2c(=O)n1-c1ccccc1)CCCC3)NN=Cc1ccc(OCc2ccccc2)cc1 ; criterion: inhibition no lower than 30%. Met?
rule not met

* * *

assay: binders of r(CAG) RNA repeats, primary screen, biochemical, fluorescence (AID 651821); details: r(CAG) RNA repeat, TO-PRO-1 dye displacement fluorescence; at 3 µM
Among all 370,000 compounds or so, about 4,700 (1.3%) were called active.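 How the source made its calls: active means inhibition above the plate cutoff, the mean of all test compounds on that plate plus 3 SD (cut at about 35% in these data); inactive means the rest.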 The sample holds actives, similar compounds and a random draw of the others, so the mix is not that of the screen.
Result category, one only: active, inactive

Some solved entries appear below for comparison.
# MOLECULE, ANSWER_LABEL
measured = [
    ("O=C(COc1ccc2c3c(c(=O)oc2c1)CCC3)NC1CCCCC1", "inactive"),
    ("CCOC(=O)C1C(C)C(C(C)(C)C)N(S(=O)(=O)c2ccc(C)cc2)C1c1ccccc1 (stereo not given)", "inactive"),
    ("COc1ccccc1C(=O)NCCC(=O)NN1C(=O)NC2(CCCCC2)C1=O", "inactive"),
    ("O=C(c1ccc2c(c1)OCO2)N1CCNc2ccccc2C1", "inactive"),
    ("Cc1c(C(C)c2ccccc2O)[nH]c2ccccc12 (stereo not given)", "inactive"),
]

Which outcome was assigned to Cc1cc(C)cc(Oc2c(C(F)(F)F)oc3cc(OCC(=O)O)ccc3c2=O)c1 in this test?
active

How did this test come out for O=C(COc1ccc2c(C(F)(F)F)cc(=O)oc2c1)Nc1ccc2c(c1)OCCO2 ?
inactive

Kindly provide the recorded test outcome for the following molecule: O=C(NS(=O)(=O)c1cccs1)[C@H]1O[C@@H](n2ccc(=O)[nH]c2=O)[C@H](O)[C@@H]1O
inactive

Which result was noted for this molecule in the test: CCN(CC)S(=O)(=O)c1ccc(Cl)c(C(=O)NC(C)C(c2cccs2)N2CCCC2)c1 (stereo not given)
inactive

For CCCC[C@H]1C2CC(OC(=O)NCc3ccccc3)C(C2)[C@H]2CCCCN21 (stereo not given in full) , which call appears in the assay record?
inactive

* * *

experiment: binders of r(CAG) RNA repeats, primary screen, biochemical, fluorescence (AID 651821); conditions: r(CAG) RNA repeat, TO-PRO-1 dye displacement fluorescence; at 3 µM
The whole screen tested about 370,000 compounds, of which about 4,700 (1.3%) were called active.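 The calls were made as follows: active = inhibition above the plate cutoff, the mean of all test compounds on that plate plus 3 SD (cut at about 35% in these data); inactive = the rest.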 The sample as a whole holds a higher share of actives than the screen did.
Please answer using one outcome listed in active, inactive

Reference set (5 entries):
# COMPOUND, ANSWER_LABEL
rows = [
    ("COc1cccc2sc(NNC(=O)c3nc4ccccc4s3)nc12", "active"),
    ("COc1ccccc1C(=O)Nc1nc2nc(-c3ccccc3)cc(=O)n2[nH]1", "inactive"),
    ("C=CC1=C(C(=O)O)N2C(=O)[C@@H](NC(=O)/C(=N/OCC(=O)O)c3csc(N)n3)[C@H]2SC1", "active"),
    ("CCCCN1CCN(C(=O)c2ccc3c(c2)NC(=O)C(C)(C)O3)CC1", "inactive"),
    ("Cc1ccc2nc(N3C(=O)C(O)=C(C(=O)c4ccco4)C3c3cccc(O)c3)sc2c1 (stereo not given)", "active"),
]

Next compound, please.
What outcome does the record of this test show for COc1ccccc1C(=O)Nn1cnnc1 ?
inactive

* * *

inhibition for assorted molecules
assay: binders of r(CAG) RNA repeats, primary screen, biochemical, fluorescence (AID 651821); settings: r(CAG) RNA repeat, TO-PRO-1 dye displacement fluorescence; at 3 µM; hits give high values;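 also: 0% = DMSO alone and 100% = 100 µM mitoxantrone as full dye displacement; higher means more dye released from RNA so lower well fluorescence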
Out of some 370,000 compounds screened, about 4,700 (1.3%) were called active. The full list was thinned out, with actives kept by preference.
Please reply with the bare figure in % and do not write the unit itself.

# ITEM_SMILES, READOUT_LABEL, MEASURED_NUMBER
rows = [
    ("COc1ccc(CNS(=O)(=O)c2cc(-c3cc(C)no3)ccc2C(C)C)cc1", "inhibition", 1.21),
]

Given the molecule COc1cccc(CNC(=O)CNS(=O)(=O)c2ccc3nc(C)sc3c2)c1OC , what is its reported inhibition?
0.91

Look up inhibition for this molecule: CC(C)(C)OC(=O)NCc1cc(F)ccc1/C=C/S(=O)(=O)NCCc1ccccc1
-0.33

Which inhibition is reported for this molecule? Cc1c(-c2ccccc2)n[nH]c1C(=O)N=Nc1c(O)[nH]c2ccccc12
36.8

Data request, read-out inhibition, for C#CCN([C@@H](C)C(=O)OCC)S(=O)(=O)c1ccc(Br)cc1F
2.12

Which inhibition value is on record for O=C(/C=C/c1cc2c(cc1Br)OCO2)NCc1ccc(Cl)cc1 ?
0.75

Requested field: inhibition. Item: O=C(CCN1CCCCC1)N=Nc1c(O)[nH]c2ccccc12
4.74

Using the record for C=CCN1C(=O)[C@H](CC(=O)N2CCN(C(=O)OCC)CC2)[C@@]2(C(=O)OCC)CCCC=C12 , report its inhibition.
0.1

Given the entry COc1ccc(C(=O)Nc2cccc(/C=C(/CCC(=O)O)c3nc4ccccc4s3)c2)cc1 , report its measured inhibition.
71.7

Could you share which inhibition value was measured for O=C(O)CC/C(=C\c1cc2c(cc1Br)OCO2)c1nc2ccccc2s1 ?
38.8

* * *

experiment: binders of r(CAG) RNA repeats, primary screen, biochemical, fluorescence (AID 651821); settings: r(CAG) RNA repeat, TO-PRO-1 dye displacement fluorescence; at 3 µM; hits give high values;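 also: 0% = DMSO alone and 100% = 100 µM mitoxantrone as full dye displacement; higher means more dye released from RNA so lower well fluorescence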
About 4,700 (1.3%) of roughly 370,000 compounds were called active. The sample as a whole holds a higher share of actives than the screen did.
READOUT_LABEL: inhibition (%)
Quick note: give the figure in %, leave out the unit.

# COMPOUND, MEASURED_NUMBER
rows = [
    ("Oc1c(Cl)cc(Cl)c(Cl)c1Cc1c(O)c(Cl)cc(Cl)c1Cl", 94),
    ("Cc1nc(NC(=O)C(C)(C)C)sc1[N+](=O)[O-]", 2.08),
    ("COC[C@@H]1CCCN1c1ccc2c(c1)O[C@H](C)CCN(C1CC1)S2(=O)=O", 0.67),
    ("CCCCCNC(=O)C(c1ccc(OC)cc1)n1c(=O)c(-c2ccccc2)nc2ccccc21 (stereo not given)", 7.62),
]

Below: the item to evaluate.
Looking for the measured inhibition of COC(=O)c1cccc(Cn2ccc3ccc(-c4ccc5ccn(C(=O)c6ccccc6C)c5c4)cc32)c1 , can you help?
10.1

* * *

test: binders of r(CAG) RNA repeats, primary screen, biochemical, fluorescence (AID 651821); details: r(CAG) RNA repeat, TO-PRO-1 dye displacement fluorescence; at 3 µM;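 also: 0% = DMSO alone and 100% = 100 µM mitoxantrone as full dye displacement; higher means more dye released from RNA so lower well fluorescence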
About 4,700 (1.3%) of roughly 370,000 compounds were called active.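 The calls were made as follows: active = inhibition above the plate cutoff, the mean of all test compounds on that plate plus 3 SD (cut at about 35% in these data); inactive = the rest.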 The sample as a whole holds a higher share of actives than the screen did.
Your response should consist of one outcome taken from active, inactive

Known results for molecules:
# MOLECULE, ANSWER_LABEL
records = [
    ("Cc1ccc(CSCC(=O)N(C)CC(=O)Nc2cccc(F)c2)cc1", "inactive"),
    ("Cc1ccc(-c2nn(-c3ccccc3)cc2/C=C2\\SC(=S)N(CCCCCC(=O)O)C2=O)o1", "active"),
    ("CC1=C(C(=O)Nc2cc(C)ccn2)C(c2cnn(C)c2)C2=C(CC(c3ccccc3)CC2=O)N1 (stereo unspecified)", "inactive"),
    ("CC(CCN1CCC(C(O)(c2ccccc2)c2ccccc2)CC1)Oc1ccc(C(F)(F)F)cc1 (stereo unspecified)", "inactive"),
    ("COCCNC(=O)Nc1ccc2nc(-c3ccco3)c(-c3ccco3)nc2c1", "active"),
]

State the result this test recorded for CCN(CC)C(=O)CSC(Nc1cccc(F)c1)=C(C#N)C#N .
active

Dear colleague, could you share the recorded outcome for CC(=O)OC12CCCN(C1)/C(=C/c1ccncc1)C2 (stereo unspecified) when you have a moment?
inactive

Look up the recorded call for Cc1noc(C)c1S(=O)(=O)NCCc1ccc(S(N)(=O)=O)cc1 in this test.
inactive

src = PubChem BioAssay AID651821
